meta.source: patent US20220281848A1

Tested on: ivy-leaved morning glory (Ipomoea hederacea, IPOHE)
Assay: Test A post-emergence, ivy-leaved morning glory
Type: in vivo
Conditions: Post-Emergence at 62.5 g/ha; after 13 d
Decide using damage to plant (100=total damage; 0=no damage) IPOHE alone. Strictly below 10: true (1). Equal to or above 10: false (0).

These solved cases illustrate the format of a correct answer.
compound | group_label
CCn1nc(C2CN(C)C(=O)C2C(=O)Nc2cccc(F)c2F)c2cccc(F)c21 (stereo not shown) [Compound 15] | true (1)
CN1CC(c2cc(C(F)(F)F)n(C)n2)C(C(=O)Nc2cccc(F)c2C(F)(F)F)C1=O (racemic) | true (1)
CN1CC(c2cc(C(F)(F)F)n(C)n2)C(C(=O)Nc2ccccc2F)C1=O (racemic) | true (1)
CCn1nc([C@H]2CN(C)C(=O)[C@@H]2C(=O)Nc2cccc(F)c2F)c2c(F)cccc21 | false (0)
COc1c(F)cccc1NC(=O)C1C(=O)N(C)CC1c1cc(C(F)(F)F)n(C)n1 (racemic) | false (0)
CCn1nc(C2CN(C)C(=O)C2C(=O)Nc2cccc(F)c2F)c2cccc(F)c21 (racemic) [Compound 10] | true (1)

Q. damage to plant (100=total damage; 0=no damage) IPOHE under 10? Item: CN1CC(c2cc(C(F)(F)F)n(C)n2)C(C(=O)Nc2cccc(F)c2F)C1=O (racemic)
A. true (1)

Q. Ok, now CN1CC(c2cc(Cl)n(C)n2)C(C(=O)Nc2ccc(F)c(F)c2F)C1=O (racemic)
A. false (0)

Q. What do we get for CCc1ccccc1NC(=O)C1C(=O)N(C)CC1c1cc(C(F)(F)F)n(C)n1 (racemic) ?
A. true (1)

---

Test system: plants
Test: Test D pre-emergence, other plants of Tables D1 and D3
Format: in vivo
Details: SORVU; preemergent; rate 250; 20 DAA
The entries below come with measured damage to plant (100=total damage to plant; 0=no damage to plant), SORVU values attached.

Sample records with damage to plant (100=total damage to plant; 0=no damage to plant), SORVU:
compound | result
CCn1nc([C@H]2CN(C)C(=O)[C@@H]2C(=O)Nc2cccc(F)c2F)c2ccc(F)cc21 [Compound 4] | 40
CN1CC(c2cc(C(F)(F)F)n(C)n2)C(C(=O)Nc2ccc(F)cc2F)C1=O (racemic) [Compound 6] | 0
CCn1nc([C@@H]2CN(C)C(=O)[C@H]2C(=O)Nc2cccc(F)c2F)c2cccc(F)c21 [Compound 14] | 0

Q. Need damage to plant (100=total damage to plant; 0=no damage to plant), SORVU, item CN1CC(c2cc(C(F)(F)F)n(C)n2)C(C(=O)Nc2ccc(F)c(F)c2F)C1=O (racemic) [Compound 17]
A. 0

---

Test system: corn (Zea mays, ZEAMX)
Experiment: Test A post-emergence, corn
Format: in vivo
Settings: Post-Emergence at 62.5 g/ha; after 13 d
// values below are reported damage to plant (100=total damage; 0=no damage) ZEAMX

compound | result
CN1CC(c2cc(C(F)(F)F)n(C)n2)C(C(=O)Nc2ccc(F)c(F)c2F)C1=O (racemic) | 50
CN1CC(c2cc(C(F)(F)F)n(C)n2)C(C(=O)Nc2cccc(F)c2OC(F)F)C1=O (racemic) | 20
CN1CC(c2nn(C)c(Cl)c2Br)C(C(=O)Nc2ccc(F)cc2F)C1=O (racemic) | 0

Turning now to a further record.
Q. Find the measured damage to plant (100=total damage; 0=no damage) ZEAMX: item CN1CC(c2cc(C(F)(F)F)n(C)n2)C(C(=O)Nc2cccc(F)c2F)C1=O (racemic) , target or system corn (Zea mays, ZEAMX).
A. 50

---

Tested on: plants
Assay: Test D pre-emergence, other plants of Tables D1 and D3
Type: in vivo
Conditions: pre-emergence, rate 130, 20 DAA, 100=total damage, 0=no damage
measurement_type: damage to plant, HORVW
Keep the answer to the number alone.

The cases that follow already have their damage to plant, HORVW on record.
compound | damage to plant, HORVW
CCn1nc([C@H]2CN(C)C(=O)[C@@H]2C(=O)Nc2cccc(F)c2F)c2c(F)cccc21 [Compound 7] | 0
COc1c(F)cccc1NC(=O)C1C(=O)N(C)CC1c1cc(C(F)(F)F)n(C)n1 (racemic) [Compound 18] | 0

Q. For CN1CC(c2cc(C(F)(F)F)n(C)n2)C(C(=O)Nc2cccc(F)c2C(F)(F)F)C1=O (racemic) [Compound 19] , what is its reported damage to plant, HORVW?
A. 0

Q. // repeat for CCn1nc([C@H]2CN(C)C(=O)[C@@H]2C(=O)Nc2cccc(F)c2F)c2cc(F)ccc21 [Compound 8] and report
A. 0

Q. Cool, now CCn1nc([C@H]2CN(C)C(=O)[C@@H]2C(=O)Nc2cccc(F)c2F)c2ccc(F)cc21 [Compound 4]
A. 0

Q. Continue with CCn1nc([C@@H]2CN(C)C(=O)[C@H]2C(=O)Nc2cccc(F)c2F)c2cccc(F)c21 [Compound 14]
A. 10

---

Tested on: plants
Test: Test D pre-emergence, other plants of Tables D1 and D3
Assay type: in vivo
Settings: SETFA; preemergent; rate 30; 20 DAA
Below: a set of entries, each annotated with reported damage to plant (100=total damage to plant; 0=no damage to plant), SETFA.
I'd appreciate a reply containing only the number, no unit.

Q. Give the measured damage to plant (100=total damage to plant; 0=no damage to plant), SETFA of CN1CC(c2cc(C(F)(F)F)n(C)n2)C(C(=O)Nc2ccc(F)cc2F)C1=O (racemic) .
A. 0

Q. Now give it for CN1CC(c2cc(C(F)(F)F)n(C)n2)C(C(=O)Nc2ccccc2F)C1=O (racemic) too.
A. 0

Q. Field entry: `CCn1nc([C@H]2CN(C)C(=O)[C@@H]2C(=O)Nc2cccc(F)c2F)c2cc(F)ccc21`
A. 80

Q. Let us now turn to `CCn1nc([C@@H]2CN(C)C(=O)[C@H]2C(=O)Nc2cccc(F)c2F)c2cccc(F)c21`
A. 70

---

System: barnyardgrass (Echinochloa crus-galli, ECHCG)
Assay: Test A post-emergence, barnyardgrass
Type: in vivo
Settings: Post-Emergence at 250 g/ha; after 13 d
measurement_type: damage to plant (100=total damage; 0=no damage) ECHCG
I only need the number, thanks.

Consider the reported damage to plant (100=total damage; 0=no damage) ECHCG for these compounds:
compound | result_number
CN1CC(c2cc(C(F)(F)F)n(C)n2)C(C(=O)Nc2cccc(F)n2)C1=O (racemic) [Compound 24] | 80
CN1CC(c2cc(C(F)(F)F)n(C)n2)C(C(=O)Nc2ccccc2F)C1=O (racemic) [Compound 9] | 90
CCn1nc([C@H]2CN(C)C(=O)[C@@H]2C(=O)Nc2cccc(F)c2F)c2ccc(F)cc21 [Compound 4] | 90

Q. Any idea what damage to plant (100=total damage; 0=no damage) ECHCG was measured for CCn1nc([C@@H]2CN(C)C(=O)[C@H]2C(=O)Nc2cccc(F)c2F)c2cccc(F)c21 [Compound 14] ?
A. 80

Q. Now consider CCn1nc(C2CN(C)C(=O)C2C(=O)Nc2cccc(F)c2F)c2cccc(F)c21 (racemic) [Compound 10] .
A. 90

Q. Cool, now CN1C[C@H](c2nn(C)c3c(Cl)cccc23)[C@@H](C(=O)Nc2cccc(F)c2F)C1=O [Compound 5]
A. 80

Q. Same for CN1CC(c2nn(C)c(Cl)c2Br)C(C(=O)Nc2ccc(F)cc2F)C1=O (racemic) [Compound 30]
A. 50

Q. Again, but for CN1CC(c2cc(Cl)n(C)n2)C(C(=O)Nc2ccc(F)cc2F)C1=O (racemic) [Compound 29]
A. 60

Q. Further, for CN1CC(c2cc(Cl)n(C)n2)C(C(=O)Nc2cccc(F)c2F)C1=O (racemic) [Compound 27] ?
A. 70

Q. How about this compound: CN1CC(c2cc(C(F)(F)F)n(C)n2)C(C(=O)Nc2ccc(F)cc2C(C)(F)F)C1=O (racemic) [Compound 26]
A. 90

---

System: giant foxtail (Setaria faberi, SETFA)
Assay: Test A pre-emergence, giant foxtail
Format: in vivo
Details: Pre-Emergence at 15.625 g/ha; after 13 d
measurement_type: damage to plant (100=total damage; 0=no damage) SETFA

The examples below pair each entry with its known result.
compound | subject_of_test | result
CN1CC(c2nn(C)c(Cl)c2Br)C(C(=O)Nc2ccc(F)c(F)c2F)C1=O (racemic) [Compound 32] | giant foxtail (Setaria faberi, SETFA) | 20
CN1CC(c2cc(C(F)(F)F)n(C)n2)C(C(=O)Nc2ccc(F)nc2F)C1=O (racemic) [Compound 22] | giant foxtail (Setaria faberi, SETFA) | 80
CN1CC(c2cc(C(F)(F)F)n(C)n2)C(C(=O)Nc2cccc(F)c2C(F)(F)F)C1=O (racemic) [Compound 19] | giant foxtail (Setaria faberi, SETFA) | 80

Q. Value wanted: damage to plant (100=total damage; 0=no damage) SETFA (giant foxtail (Setaria faberi, SETFA)) of entry CCc1ccccc1NC(=O)C1C(=O)N(C)CC1c1cc(C(F)(F)F)n(C)n1 (racemic) [Compound 20]
A. 50

Q. How about this compound: CCn1nc([C@H]2CN(C)C(=O)[C@@H]2C(=O)Nc2cccc(F)c2F)c2cc(F)ccc21 [Compound 8]
A. 80

Q. Here is the next compound: CCn1nc([C@H]2CN(C)C(=O)[C@@H]2C(=O)Nc2cccc(F)c2F)c2ccc(F)cc21 [Compound 4]
A. 80
